- System: Key Broadleaf Weed and Crop Species
- PROCEDURE DETAILS: Post-emergent Test II herbicidal activity (Table 5)
- Assay type: in vivo
- EXPERIMENTAL SETUP: post-emergence, 336 h; ABUTH: velvetleaf (Abutilon theophrasti); 70 g ai/ha; post-emergent; 14 days after application; read-out: Visual Growth Reduction (%) 14 Days After Application ABUTH
Would you kindly list pest or weed control at 70 g/ha for each of these molecules?

### Prompt What value of pest or weed control at 70 g/ha has been recorded for this entry: `Nc1c(Cl)c(C(=O)O)nc(-c2ccc(I)c(F)c2)c1Cl`
### Response 45 to 59%

### Prompt What value of pest or weed control at 70 g/ha has been recorded for this entry: `Cc1c(-c2ccc(Br)cc2)nc(C(=O)O)c(Cl)c1N`
### Response 95 to 100%

### Prompt What value of pest or weed control at 70 g/ha has been recorded for this entry: `Nc1c(Cl)c(C(=O)O)nc(-c2ccc(Br)c(F)c2)c1Cl`
### Response 85 to 94%

### Prompt What value of pest or weed control at 70 g/ha has been recorded for this entry: `COC(=O)c1nc(-c2cc(F)c(C(F)F)cc2F)c(F)c(N)c1Cl`
### Response 95 to 100%

### Prompt What value of pest or weed control at 70 g/ha has been recorded for this entry: `Nc1cc(-c2ccc(Br)c(F)c2)nc(C(=O)O)c1Cl`
### Response 95 to 100%
